T/C values, listed per item
Tested on: L1210 leukemia ip in BDF1 mice, survival T/C
protocol: NCI In Vivo Anticancer Drug Screen. Data for tumor model L1210 Leukemia (intraperitoneal) in B6D2F1 (BDF1) mice
particulars: endpoint: mean survival time; dose: 400.0 mg/kg/injection; schedule: Q04DX003 (ip); vehicle: saline; higher = longer survival
Inconclusive results and toxic doses are left out.

Consider the worked cases shown below.
>  <compound>
C1CCNNC1

>  <assaySystem>
L1210 leukemia ip in BDF1 mice, survival T/C

>  <measured>
89 % of control

$$$$
>  <compound>
ClC1=C(Cl)C2(Cl)CCC1(Cl)C2Cl (centres undefined)

>  <assaySystem>
L1210 leukemia ip in BDF1 mice, survival T/C

>  <measured>
97 % of control

$$$$
>  <compound>
CCOC(=O)C(NC(C)=O)(C(=O)OCC)C(C)C(O)c1ccc(OC)c(OC)c1O (centres undefined)

>  <assaySystem>
L1210 leukemia ip in BDF1 mice, survival T/C

>  <measured>
103 % of control

$$$$
>  <compound>
Cc1cccc(Cl)[n+]1[O-]

>  <assaySystem>
L1210 leukemia ip in BDF1 mice, survival T/C

>  <measured>
86 % of control

$$$$
>  <compound>
CCCCCCC(O)C/C=C\CCCCCCCCO (centres undefined)

>  <assaySystem>
L1210 leukemia ip in BDF1 mice, survival T/C

>  <measured>
104 % of control

$$$$

Query: Specify T/C for `CCOC(=O)/C(Cc1ccc2ccccc2n1)=N/O` and stop.
Reply: 93 % of control

Query: Supply recorded T/C for CC(O)(c1ccc(Br)cc1)C(c1ccccc1)c1ccccn1 (centres undefined) here.
Reply: 110 % of control

Query: Fill in reported T/C for this entry: `OC1c2ccccc2-c2ccccc21`
Reply: 93 % of control

Query: Supply T/C value. Item: `CC(C)=CC[N+]12CN3CN(CN(C3)C1)C2`
Reply: 110 % of control

Query: Give the measured T/C for O=C1NC2CC=CCC12 (centres undefined)
Reply: 94 % of control

Query: For the compound `C/C(CC(C)C)=N\NC(=O)Nc1ccc(Cl)c(Cl)c1` , report T/C.
Reply: 113 % of control

Query: Determine its reported T/C: `CC(=O)C(N=Nc1nn[nH]n1)C(C)=O`
Reply: 96 % of control

Query: Indicate the recorded T/C value for this compound: O=C(O)CC(O)C(F)(F)C(F)(F)C(F)(F)F (centres undefined)
Reply: 87 % of control

Query: For the compound `Cc1ccc2ccccc2n1` , report T/C.
Reply: 98 % of control
